- procedureDetails: Drug level in Sprague-Dawley rat blood at 2 mg/kg, iv after 1 hr
- Assay type: ADME, organism-based
- Design: dose 2 mg/kg, route intravenous
- condition: read-out: Drug uptake
reportedEndpoint: concentration at 1 h (ng/mL)
Number in ng/mL, nothing else.

Data request: Please report the recorded concentration at 1 h for CC(=O)O[C@@H](C[C@@H](C)C1=C2C[C@H](OC(C)=O)[C@H]3[C@@]4(C)CCC(=O)C(C)(C)[C@@H]4CC[C@]3(C)[C@@]2(C)CC1)[C@@H](OC(C)=O)C(C)(C)OC(C)=O .
Data returned: 156

----------
- procedureDetails: Drug level in Sprague-Dawley rat blood at 10 mg/kg, ig after 2 hrs
- Assay type: ADME, organism-based
- Set-up: dose 10 mg/kg, route intragastric
- condition: po, read-out: Drug uptake
reportedEndpoint: concentration at 2 h (ng/mL)
Number in ng/mL, nothing else.

Data request: Please report the recorded concentration at 2 h for CC(=O)O[C@@H](C[C@@H](C)C1=C2C[C@H](OC(C)=O)[C@H]3[C@@]4(C)CCC(=O)C(C)(C)[C@@H]4CC[C@]3(C)[C@@]2(C)CC1)[C@@H](OC(C)=O)C(C)(C)OC(C)=O .
Data returned: 290
